Origin of measurements: paper PMC5428354

Molecular target: DPP4 (Homo sapiens)
Experiment: DPP4 activity assay (DPP4 inhibitor screening assay kit, Cayman)
Type: biochemical
Design: purchased Cayman Chemical, Ann Arbor, MI, USA
Conditions: 0.5 h, 10 µM; control mean 100.0; Figure 1A raw data; read-out: DPP4 activity in library screen, Exp 1

compound	remaining activity at 10 µM, %
O=C1c2c(O)cc(O)cc2OC(c2ccc(O)c(O)c2)C1O (stereo not drawn) [Taxifolin (Dihydroquercetin), Taxifolin]	93.8
O=c1c(O)c(-c2ccc(O)cc2)oc2cc(O)cc(O)c12 [Kaempferol]	52
OC[C@@H](O)[C@@H](O)[C@H](O)[C@@H](O)CO [Sorbitol]	94.5
CC1(C)[C@@H](O[C@H]2O[C@H](C(=O)O)[C@@H](O)[C@H](O)[C@H]2O[C@@H]2O[C@H](C(=O)O)[C@@H](O)[C@H](O)[C@H]2O)CC[C@]2(C)[C@H]3C(=O)C=C4[C@@H]5C[C@@](C)(C(=O)O)CC[C@]5(C)CC[C@@]4(C)[C@]3(C)CC[C@@H]12 [Glycyrrhizin (Glycyrrhizic Acid), Glycyrrhizin]	137
COc1ccc(C(C)=O)c(O)c1 [Paeonol]	80.3
O=c1[nH]cnc2nc[nH]c12 [Hypoxanthine]	96.7
C[C@@H]1O[C@@H](O[C@H]2[C@H](Oc3cc(O)c4c(c3)O[C@H](c3ccc(O)cc3)CC4=O)O[C@H](CO)[C@@H](O)[C@@H]2O)[C@H](O)[C@H](O)[C@H]1O [Naringin]	116
C[C@H]1[C@@H](O)O[C@@H]2O[C@@]3(C)CC[C@H]4[C@H](C)CC[C@@H]1[C@@]24OO3 [Dihydroartemisinin (DHA), Dihydroartemisinin]	97.1
Cc1coc2c1C(=O)C(=O)c1c-2ccc2c(C)cccc12 [Tanshinone I]	56.8
C[C@H](NCc1ccc(OCc2cccc(F)c2)cc1)C(N)=O [Safinamide]	93.4
CC1(C)O[C@H]2CC(=O)OC[C@]23[C@H]2CC[C@@]4(C)[C@H](c5ccoc5)OC(=O)[C@H]5O[C@]54[C@]2(C)C(=O)C[C@@H]13 [Limonin]	104
O=c1c2ccccc2oc2ccccc12 [Xanthone]	88.9
C[C@H]1[C@H](C)CC[C@]2(C(=O)O)CC[C@]3(C)C(=CC[C@@H]4[C@@]5(C)C[C@@H](O)[C@H](O)[C@@](C)(CO)[C@@H]5CC[C@]43C)[C@H]12 [Asiatic Acid]	83.3
Cc1cc(O)c2c(c1)C(=O)c1cc(O)cc(O)c1C2=O [Emodin]	22
Nc1nc2c(ncn2[C@@H]2O[C@H](CO)[C@@H](O)[C@H]2O)c(=O)[nH]1 [Guanosine]	104

====

Target: DPP4 (Homo sapiens, UniProt P27487)
Sequence (P27487 whole entry): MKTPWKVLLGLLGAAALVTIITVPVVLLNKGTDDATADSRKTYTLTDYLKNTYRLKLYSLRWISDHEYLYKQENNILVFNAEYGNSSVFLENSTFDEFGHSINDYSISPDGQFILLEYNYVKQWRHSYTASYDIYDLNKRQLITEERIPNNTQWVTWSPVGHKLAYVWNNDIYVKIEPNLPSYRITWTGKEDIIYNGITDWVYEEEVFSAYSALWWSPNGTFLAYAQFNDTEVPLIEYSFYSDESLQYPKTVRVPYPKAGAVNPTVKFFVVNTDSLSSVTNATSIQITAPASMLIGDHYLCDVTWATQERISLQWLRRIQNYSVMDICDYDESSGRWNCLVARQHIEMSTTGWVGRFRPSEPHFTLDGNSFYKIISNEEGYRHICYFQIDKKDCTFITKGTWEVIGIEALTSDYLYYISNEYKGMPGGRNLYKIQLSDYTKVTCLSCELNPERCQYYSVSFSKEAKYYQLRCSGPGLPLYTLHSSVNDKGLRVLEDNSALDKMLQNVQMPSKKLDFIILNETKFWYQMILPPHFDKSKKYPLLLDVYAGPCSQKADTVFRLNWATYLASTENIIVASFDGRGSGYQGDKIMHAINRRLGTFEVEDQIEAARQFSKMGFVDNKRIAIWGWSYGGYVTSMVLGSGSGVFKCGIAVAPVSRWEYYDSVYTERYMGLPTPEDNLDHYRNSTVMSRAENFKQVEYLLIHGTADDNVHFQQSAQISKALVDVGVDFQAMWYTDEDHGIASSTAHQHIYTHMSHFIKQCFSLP
Assay: DPP4 activity assay (DPP4 inhibitor screening assay kit, Cayman);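 note: fluorescence read at excitation 360 nm and emission 460 nm after the enzyme reaction ran 30 min at 37 °C in a 96-well plate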
Type: biochemical
Parameters: purchased Cayman Chemical, Ann Arbor, MI, USA
Details: 0.5 h, 10 µM; control mean 100.0; mean of Exp 1-3; read-out: DPP4 activity in library screen, Mean
quantity-measured: remaining activity at 10 µM (%)

                                   molecule  measured_number
0    Cc1cc(O)c2c(c1)C(=O)c1cc(O)cc(O)c1C2=O             28.6
1  C[C@H](CCC(=O)O)[C@H]1CC[C@H]2[C@@H]3C[C@H](O)[C@@H]4C[C@H](O)CC[C@]4(C)[C@H]3CC[C@]12C             95.8
2  C/C=C1/[C@H](O[C@@H]2O[C@H](CO)[C@@H](O)[C@H](O)[C@H]2O)OC=C(C(=O)OC)[C@H]1CC(=O)OCCc1ccc(O)c(O)c1              104
3  O=C(O[C@@H]1Cc2c(O)cc(O)cc2O[C@@H]1c1cc(O)c(O)c(O)c1)c1cc(O)c(O)c(O)c1 [(-)-Epigallocatechin Gallate]             90.8
4                 O=C(O)CCCc1c[nH]c2ccccc12             97.5
5   O=c1cc(-c2ccc(O)c(O)c2)oc2cc(O)cc(O)c12             66.6
6  Cc1cc2c(C(C)C)c(O)c(O)c(C=O)c2c(O)c1-c1c(C)cc2c(C(C)C)c(O)c(O)c(C=O)c2c1O             55.3
